ASSAY REMARKS: Rat in-vivo pharmacokinetic assay (PO)
SETTINGS: male SD rats, PO 10 mg/kg, plasma
Protocol: Assay animals: 6-8 weeks aged male SD rats (purchased from Vital River Laboratories), 3 rats per compound, weighing 200-240 g. Solvent: 0.5% MC (methyl cellulose) solution+0.1% SDS (sodium dodecyl sulfate). Intragastric administration (PO): See Table 2 Blood collection: each of 200 μL whole blood were collected at 0.17 hr, 0.5 hr, 1 hr, 2 hr, 4 hr, 6 hr, 8 hr, 24 hr, 30 hr, 48 hr, 54 hr and 72 hr. […]
METRIC: AUC(0-inf) (ng·h/mL)
Write the answer as a number in ng·h/mL, unit excluded.

*Q* // Input: OC[C@H]1O[C@@H](c2ccc(Cl)c(Cc3ccc(O[C@H]4C[C@@H]5C[C@@H]5C4)cc3)c2)[C@H](O)[C@@H](O)[C@@H]1O . Output its AUC(0-inf) only.
*A* 92100

###

# IC50 annotations
TESTED ON: human SGLT-1 (Homo sapiens (Human))
Sequence (P13866 whole entry): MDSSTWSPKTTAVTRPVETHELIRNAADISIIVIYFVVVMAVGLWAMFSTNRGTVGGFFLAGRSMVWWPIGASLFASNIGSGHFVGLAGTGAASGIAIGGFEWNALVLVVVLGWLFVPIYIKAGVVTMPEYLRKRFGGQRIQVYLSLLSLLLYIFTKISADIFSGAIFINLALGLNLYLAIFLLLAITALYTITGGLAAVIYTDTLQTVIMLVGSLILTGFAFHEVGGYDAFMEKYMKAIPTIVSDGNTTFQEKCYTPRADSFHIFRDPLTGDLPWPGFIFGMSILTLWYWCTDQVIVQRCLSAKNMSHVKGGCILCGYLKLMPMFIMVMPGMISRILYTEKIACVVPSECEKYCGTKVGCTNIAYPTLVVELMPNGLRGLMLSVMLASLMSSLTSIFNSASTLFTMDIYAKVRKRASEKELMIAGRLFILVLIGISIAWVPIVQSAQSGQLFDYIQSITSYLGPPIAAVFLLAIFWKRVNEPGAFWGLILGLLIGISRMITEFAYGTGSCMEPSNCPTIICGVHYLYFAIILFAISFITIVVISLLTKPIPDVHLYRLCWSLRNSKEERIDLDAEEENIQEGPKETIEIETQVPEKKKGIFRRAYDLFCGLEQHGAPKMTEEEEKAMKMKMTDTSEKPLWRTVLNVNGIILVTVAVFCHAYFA
ASSAY REMARKS: In-vitro [14C]-AMG uptake inhibition assay in CHO cells stably expressing human SGLT-1
SETTINGS: human SGLT-1 in CHO cells
Could you write the number and then its unit?

> print(dat)
                                smiles.repr  metric  test.result
1  OC[C@H]1O[C@@H](c2ccc(Cl)c(Cc3ccc(O[C@@H]4C[C@@H]5C[C@@H]5C4)cc3)c2)[C@H](O)[C@@H](O)[C@@H]1O    IC50      3.08 µM
2  OC[C@H]1O[C@H](c2ccc(Cl)c(Cc3ccc(O[C@H]4C[C@@H]5C[C@@H]5C4)cc3)c2)[C@H](O)[C@@H](O)[C@@H]1O    IC50       111 µM
3  OC[C@H]1O[C@@H](c2ccc(Cl)c(Cc3ccc(O[C@H]4C[C@@H]5C[C@@H]5C4)cc3)c2)[C@H](O)[C@@H](O)[C@@H]1O    IC50      17.2 µM

We now examine a further compound.
*Q* Please report IC50 with human SGLT-1 (Homo sapiens (Human)) for item OC[C@H]1O[C@H](c2ccc(Cl)c(Cc3ccc(O[C@@H]4C[C@@H]5C[C@@H]5C4)cc3)c2)[C@H](O)[C@@H](O)[C@@H]1O .
*A* 75.5 µM

###

ASSAY REMARKS: Rat in-vivo pharmacokinetic assay (PO)
SETTINGS: male SD rats, PO 10 mg/kg, plasma
METRIC: AUC(0-t) (ng·h/mL)
Write the answer as a number in ng·h/mL, unit excluded.

*Q* // Input: OC[C@H]1O[C@@H](c2ccc(Cl)c(Cc3ccc(O[C@H]4C[C@@H]5C[C@@H]5C4)cc3)c2)[C@H](O)[C@@H](O)[C@@H]1O . Output its AUC(0-t) only.
*A* 92100

###

ASSAY REMARKS: Rat in-vivo pharmacokinetic assay (PO)
SETTINGS: male SD rats, PO 10 mg/kg, plasma
METRIC: Tmax

*Q* // Input: OC[C@H]1O[C@@H](c2ccc(Cl)c(Cc3ccc(O[C@H]4C[C@@H]5C[C@@H]5C4)cc3)c2)[C@H](O)[C@@H](O)[C@@H]1O . Output its Tmax only.
*A* 1 h

###

TESTED ON: human SGLT-2 (Homo sapiens (Human), UniProt P31639)
Sequence (P31639 whole entry): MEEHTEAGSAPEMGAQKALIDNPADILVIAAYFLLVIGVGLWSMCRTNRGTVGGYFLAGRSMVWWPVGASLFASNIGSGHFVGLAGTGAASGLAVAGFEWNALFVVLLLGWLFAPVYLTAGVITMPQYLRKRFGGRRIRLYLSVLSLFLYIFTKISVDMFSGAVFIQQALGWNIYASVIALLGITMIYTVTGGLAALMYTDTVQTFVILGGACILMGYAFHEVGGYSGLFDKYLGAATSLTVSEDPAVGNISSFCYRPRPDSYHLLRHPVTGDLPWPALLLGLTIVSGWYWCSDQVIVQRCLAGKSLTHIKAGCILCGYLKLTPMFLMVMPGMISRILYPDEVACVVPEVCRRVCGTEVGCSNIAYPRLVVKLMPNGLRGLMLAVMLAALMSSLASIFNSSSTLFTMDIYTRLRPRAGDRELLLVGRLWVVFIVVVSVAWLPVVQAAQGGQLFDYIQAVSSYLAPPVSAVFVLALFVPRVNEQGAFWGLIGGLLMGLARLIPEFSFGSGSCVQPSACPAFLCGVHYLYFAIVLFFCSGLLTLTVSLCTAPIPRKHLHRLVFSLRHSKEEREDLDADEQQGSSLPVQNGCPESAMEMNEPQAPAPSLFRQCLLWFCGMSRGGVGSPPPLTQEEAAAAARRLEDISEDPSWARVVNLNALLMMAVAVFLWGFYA
ASSAY REMARKS: In-vitro [14C]-AMG uptake inhibition assay in CHO cells stably expressing human SGLT-2
SETTINGS: human SGLT-2 in CHO cells, [14C]-AMG uptake
Protocol: In the in-vitro assay for the pharmacological activities of the present compounds, the human SGLT-2 and SGLT-1 sequences were transfected to Chinese hamster ovary cells to express stably. By measuring inhibition of the sodium dependent adsorption of [^14C]-labeled […]-D-glucopyranoside (AMG) into the cells, the half-inhibition concentration IC50 was determined. Buffer A (KRH—Na^+): 120 mM NaCl, 4.7 mM KCl, 1.2 mM MgCl2, 2.2 mM CaCl2, 10 mM HEPES (PH 7.4 with 1 mM Tris). […]
METRIC: IC50 (nM)
Write the answer as a number in nM, unit excluded.

*Q* // Input: OC[C@H]1O[C@@H](c2ccc(Cl)c(Cc3ccc(O[C@H]4C[C@@H]5C[C@@H]5C4)cc3)c2)[C@H](O)[C@@H](O)[C@@H]1O . Output its IC50 only.
*A* 2.5
